Origin of measurements: patent US20120231006A1

TARGET_UNDER_TEST: T1, hOrai1-mOrai1 ECL2 (VST) protein (human/mouse chimera, UniProt Q96D31 1-301)
T1 construct: also called Ch
EXPERIMENTAL_PROTOCOL: FACS, 293EBNA
Parameters: concentration or dose not given beside the values
QUANTITY_NAME: percent of control (POC) of FACS Geo Mean

# input I'd like to know its percent of control (POC) of FACS Geo Mean. The binder in question is mAb 2B7.1 (antibody, human IgG2, V domains shown, fully human, Campaign 1) VH: QVQLQQWGAGLLKPSETLSLTCAVYGGSFSGYYWSWIRQPPGKGLEWIGEIDHSGSTNYNPALKSRLTISVDTSKNQFSLKLSSVTAADTAVYYCARAGSGGYEDWFDPWGQGTLVTVSS VL: QSVLTQPPSVSGAPGQRVTISCTGSSSNIGTGYNVHWYQQFPRTDPKLLIYVYNIRPSGVPDRFSGSRSGTSASLAITGLQTEDEADYYCQSYDSSLSGVVFGGGTKLTVLG
# output < 1%
